A collection of compounds and their measured half-life at 1 mmoL/L
Experiment: Stability test in acidic or basic solution (half-life by liquid chromatography)
Assay type: physicochemical
Conditions: phosphate buffer pH 3.4, 37° C., time to 50% residual rate, read-out: Half-life, pH 3.4 solution (converted)
Numbers only here, please. The scale is h.

## Task Output half-life at 1 mmoL/L of O=c1oc2ccc(Cl)cc2c(O)c1O [B]
## Result 53

## Task Output half-life at 1 mmoL/L of O=c1oc2ccccc2c(O)c1O [comparative compound A]
## Result 30

## Task Output half-life at 1 mmoL/L of O=c1oc2ccc(-c3ccccc3)cc2c(O)c1O [C, reference compound]
## Result 35

---

A collection of compounds and their measured concentration at 2 h
Assay: Bioabsorption: plasma concentration measurement in rats with oral administration
Format: in vivo, rat
Conditions: male, SD, rat, plasma, 10 mg/kg, 2.0 h, read-out: plasma concentration, Mean, time point 2.0 h

O=c1oc2ccc(Cl)cc2c(O)c1O [B]
1400 ng/mL

Now consider the entry below.
## Task Output concentration at 2 h of O=c1oc2ccccc2c(O)c1O [comparative compound A]
## Result 300 ng/mL

---

Experiment: Bioabsorption: plasma concentration measurement in rats with oral administration
Type: in vivo, rat
Conditions: male, SD, rat, plasma, 10 mg/kg, 6.0 h, read-out: plasma concentration, Mean, time point 6.0 h
MEASURED_ENDPOINT: concentration at 6 h

O=c1oc2ccccc2c(O)c1O
300 ng/mL

## Task Output concentration at 6 h of `O=c1oc2ccc(Cl)cc2c(O)c1O`
## Result 100 ng/mL

---

Experiment: Bioabsorption: plasma concentration measurement in rats with oral administration
Format: in vivo, rat
Details: male, SD, rat, plasma, 10 mg/kg, 0.5 h, read-out: plasma concentration, Mean, time point 0.5 h
A collection of compounds and their measured concentration at 0.5 h
Numbers only here, please. The scale is ng/mL.

O=c1oc2ccc(Cl)cc2c(O)c1O
4100

## Task Output concentration at 0.5 h of `O=c1oc2ccccc2c(O)c1O`
## Result 300

---

Experiment: Stability test in acidic or basic solution (half-life by liquid chromatography)
Assay type: physicochemical
Conditions: phosphate buffer pH 7.3, 37° C., time to 50% residual rate, read-out: Half-life, pH 7.3 solution (converted)
A collection of molecules and their measured half-life at 1 mmoL/L
Numbers only here, please. The scale is h.

Example molecules with recorded half-life at 1 mmoL/L:
O=c1oc2ccc(-c3ccccc3)cc2c(O)c1O [C, reference compound]
65
O=c1oc2ccc(Cl)cc2c(O)c1O
70

Now consider the entry below.
## Task Output half-life at 1 mmoL/L of `O=c1oc2ccccc2c(O)c1O`
## Result 65

---

Assay: Bioabsorption: plasma concentration measurement in rats with oral administration
Format: in vivo, rat
Settings: male, SD, rat, plasma, 10 mg/kg, read-out: Cmax (maximum plasma concentration)
A collection of compounds and their measured Cmax
Numbers only here, please. The scale is ng/mL.

O=c1oc2ccccc2c(O)c1O
600

Now consider the entry below.
## Task Output Cmax of `O=c1oc2ccc(Cl)cc2c(O)c1O`
## Result 7400

---

Tested on: circulatory insufficiency model of rats induced by injection of lauric-acid into their femoral artery
Test: Circulatory insufficiency model induced by lauric-acid in rats (lesion index)
Assay type: in vivo, rat
Design: key: summed toe lesion grades, +5 if heel reached; max 25 points
Details: male Wistar rats; 30 mg/kg multiple oral dosing (1 h prior to and 3 h after lauric-acid, then twice daily); 3 days after lauric-acid injection; average, max 25 points
Procedure: We performed this test in order to evaluate the pharmacological effect of the compounds of the present invention using a circulatory insufficiency model of rats induced by injection of lauric-acid into their femoral artery. 13-week-old male Wistar rats (body weight is 280 to 316 g), 8 rats per one group, were used. […] The extent of lesions was evaluated 3 days and 10 days after injection of lauric acid by the following criteria: […]
MEASURED_ENDPOINT: Lesion Index after 3 days
When you answer, write just the number.

CCCCOc1c(O)c2c(OCCCO)cccc2oc1=O [Compound 261]
3.7
CCCCCCCCOc1c(O)c2ccc(OCCCO)cc2oc1=O [Compound 468]
2.8
CCC(CC)Oc1c(O)c2ccc(O)cc2oc1=O [Compound 124]
3.0
CCCCCCCCOc1c(O)c2ccc(OCCC(=O)O)cc2oc1=O [Compound 525]
2.9
CCCCCCOc1c(O)c2cccc(OCCCC)c2oc1=O [Compound 214]
3.5

## Task Output Lesion Index after 3 days of CCOc1c(O)c2ccc(OC)cc2oc1=O [Compound 144]
## Result 2.5

## Task Output Lesion Index after 3 days of CCCCC(CC)Oc1c(O)c2ccc(OCC(=O)O)cc2oc1=O (stereo not drawn) [Compound 506]
## Result 2.7
